# target-desc: Vascular endothelial growth factor receptor 2 (Homo sapiens)
# Sequence (P35968 whole entry): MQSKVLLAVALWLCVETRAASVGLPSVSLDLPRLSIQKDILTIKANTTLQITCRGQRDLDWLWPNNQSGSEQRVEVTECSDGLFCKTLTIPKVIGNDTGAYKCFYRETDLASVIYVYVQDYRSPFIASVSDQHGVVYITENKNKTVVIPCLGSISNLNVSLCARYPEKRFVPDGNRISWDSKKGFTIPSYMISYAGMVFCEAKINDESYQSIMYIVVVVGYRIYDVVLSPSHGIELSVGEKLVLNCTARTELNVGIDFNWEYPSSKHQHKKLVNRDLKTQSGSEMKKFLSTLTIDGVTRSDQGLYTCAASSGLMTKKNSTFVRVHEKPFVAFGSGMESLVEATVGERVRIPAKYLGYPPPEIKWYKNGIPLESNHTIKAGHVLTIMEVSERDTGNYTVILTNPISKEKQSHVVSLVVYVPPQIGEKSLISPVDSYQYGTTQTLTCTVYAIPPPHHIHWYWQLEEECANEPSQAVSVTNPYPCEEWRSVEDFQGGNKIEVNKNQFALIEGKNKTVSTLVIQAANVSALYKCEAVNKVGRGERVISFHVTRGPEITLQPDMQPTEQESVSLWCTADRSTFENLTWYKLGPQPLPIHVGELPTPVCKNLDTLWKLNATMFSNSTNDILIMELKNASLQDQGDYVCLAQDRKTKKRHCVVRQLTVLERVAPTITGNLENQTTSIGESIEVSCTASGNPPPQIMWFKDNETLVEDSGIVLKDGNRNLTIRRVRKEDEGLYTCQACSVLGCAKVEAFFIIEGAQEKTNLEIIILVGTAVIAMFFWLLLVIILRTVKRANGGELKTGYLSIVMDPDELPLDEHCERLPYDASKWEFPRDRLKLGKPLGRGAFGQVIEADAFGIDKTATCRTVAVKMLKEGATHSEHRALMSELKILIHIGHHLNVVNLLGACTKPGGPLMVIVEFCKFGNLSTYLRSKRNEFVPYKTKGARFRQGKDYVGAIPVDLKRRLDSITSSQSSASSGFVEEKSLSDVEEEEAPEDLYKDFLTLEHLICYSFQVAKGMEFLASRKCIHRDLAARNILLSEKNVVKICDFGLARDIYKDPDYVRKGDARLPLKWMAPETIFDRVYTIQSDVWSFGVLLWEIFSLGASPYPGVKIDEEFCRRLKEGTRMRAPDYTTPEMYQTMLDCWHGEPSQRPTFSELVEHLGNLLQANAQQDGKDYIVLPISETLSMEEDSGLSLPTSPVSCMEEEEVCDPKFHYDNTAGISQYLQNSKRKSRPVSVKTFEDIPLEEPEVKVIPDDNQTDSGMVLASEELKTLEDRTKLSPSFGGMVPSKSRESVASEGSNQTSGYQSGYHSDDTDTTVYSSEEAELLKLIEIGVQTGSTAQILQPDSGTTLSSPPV

{"line-notation": "COc1cc2c(Nc3ccc(NC(=O)c4ccc(C)cc4)cc3)ncnc2cc1OCCN1CCCCC1", "IC50": "2.48 µM"}
{"line-notation": "COc1cc2c(Nc3ccc(NC(=O)c4cccc(Cl)c4)cc3)ncnc2cc1OCCN1CCCCC1", "IC50": "1.99 µM"}
{"line-notation": "COc1ccc(C(=O)Nc2ccc(Nc3ncnc4cc(OCc5ccccc5)c(OC)cc34)cc2)cc1", "IC50": "> 10 µM"}
{"line-notation": "COc1cc2c(Nc3ccc(NC(=O)c4ccccc4)cc3)ncnc2cc1OCCCN1CCN(C)CC1", "IC50": "0.56 µM"}
{"line-notation": "COc1ccc(C(=O)Nc2ccc(Nc3ncnc4cc(OCCCN5CCN(C)CC5)c(OC)cc34)cc2)cc1", "IC50": "2.02 µM"}
{"line-notation": "COc1cc2c(Nc3ccc(NC(=O)c4ccc(C)cc4)cc3)ncnc2cc1OCc1ccccc1", "IC50": "> 10 µM"}
{"line-notation": "COc1cc2c(Nc3ccc(NC(=O)c4ccc(Cl)cc4)cc3)ncnc2cc1OCCN1CCCCC1", "IC50": "4.19 µM"}
{"line-notation": "COc1cc2c(Nc3ccc(NC(=O)c4ccc(Cl)cc4)cc3)ncnc2cc1OCc1ccccc1", "IC50": "> 10 µM"}
{"line-notation": "COc1cc2c(Nc3ccc(NC(=O)c4ccc(Cl)cc4)cc3)ncnc2cc1OCCCN1CCOCC1", "IC50": "2.62 µM"}
